Listed next: entries and their corresponding DC50.
target: AR (Homo sapiens, UniProt P10275); construct: Degradation of AR; Cellular potency; host or cells: VCaP cells; assay: Degradation of AR in VCaP cells; format: cell-based; details: VCaP cells
Sequence (P10275 whole entry): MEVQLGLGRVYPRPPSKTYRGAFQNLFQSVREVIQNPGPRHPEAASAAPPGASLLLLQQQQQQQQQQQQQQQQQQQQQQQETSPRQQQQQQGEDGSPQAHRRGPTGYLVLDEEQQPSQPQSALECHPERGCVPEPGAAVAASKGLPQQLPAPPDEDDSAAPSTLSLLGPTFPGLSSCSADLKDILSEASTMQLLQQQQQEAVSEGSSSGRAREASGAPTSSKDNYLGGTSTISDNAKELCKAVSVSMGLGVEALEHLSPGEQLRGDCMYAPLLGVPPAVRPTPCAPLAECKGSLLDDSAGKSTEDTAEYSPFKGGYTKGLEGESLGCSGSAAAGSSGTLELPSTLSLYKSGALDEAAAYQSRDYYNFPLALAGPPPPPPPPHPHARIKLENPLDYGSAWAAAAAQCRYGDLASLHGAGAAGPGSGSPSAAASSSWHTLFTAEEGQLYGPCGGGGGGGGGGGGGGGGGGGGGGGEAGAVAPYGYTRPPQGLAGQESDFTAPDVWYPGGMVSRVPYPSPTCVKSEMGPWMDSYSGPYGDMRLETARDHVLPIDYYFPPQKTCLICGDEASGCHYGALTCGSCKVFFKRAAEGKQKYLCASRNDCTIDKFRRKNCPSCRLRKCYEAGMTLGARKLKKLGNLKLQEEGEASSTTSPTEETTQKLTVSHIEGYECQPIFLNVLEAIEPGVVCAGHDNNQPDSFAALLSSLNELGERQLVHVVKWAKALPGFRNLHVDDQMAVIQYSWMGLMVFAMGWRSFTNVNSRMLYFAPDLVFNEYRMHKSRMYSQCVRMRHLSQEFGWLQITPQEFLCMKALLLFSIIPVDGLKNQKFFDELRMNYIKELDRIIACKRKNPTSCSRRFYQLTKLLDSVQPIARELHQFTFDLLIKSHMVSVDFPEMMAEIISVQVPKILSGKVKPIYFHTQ

Take a look at these entries with their results.
| Compound | Assay Endpoint | Recorded Measurement |
| --- | --- | --- |
| C[C@H]1CC2(CCN(c3ccc(OC4CN(C5CN(c6ccc7c(c6)C(=O)N(C6CCC(=O)NC6=O)C7=O)C5)C4)nc3)CC2)CN1c1ccc(C#N)c(Cl)c1 (some centres unmarked) | DC50 | < 100 nM |
| C[C@H]1CC2(CCN(c3ncc(C(=O)N4CCN(C5CN(c6ccc7c(c6)C(=O)N(C6CCC(=O)NC6=O)C7=O)C5)CC4)s3)CC2)CN1c1ccc(C#N)c(Cl)c1 (some centres unmarked) | DC50 | < 1 nM |
| C[C@H]1CC2(CCN(c3ccc(OC4CCN(C5CN(c6cc7c(cc6F)C(=O)N(C6CCC(=O)NC6=O)C7=O)C5)CC4)cn3)CC2)CN1c1ccc(C#N)c(Cl)c1 (some centres unmarked) | DC50 | < 1 nM |
| COC1(CN2CCN(c3ccc(N4CCC5(CC4)C[C@H](C)N(c4ccc(C#N)c(Cl)c4)C5)cc3)CC2)CN(c2ccc3c(c2)C(=O)N(C2CCC(=O)NC2=O)C3=O)C1 (some centres unmarked) | DC50 | < 1 nM |

Ask: Any idea what its DC50 is? The compound is C[C@H]1CC2(CCN(c3ccc(N4CCN(CC5(F)CN(c6ccc7c(c6)C(=O)N(C6CCC(=O)NC6=O)C7=O)C5)CC4)cc3)CC2)CN1c1ccc(C#N)c(Cl)c1 (some centres unmarked)
Result: < 1 nM
